// provenance: ChEMBL document CHEMBL1201862

# Tested on: M19-MEL
# procedure-details: NCI tumour cell line growth inhibition, 48 h
The source made the active and inactive calls. Cut-off read from the data, not from the text of the source: active = GI50 up to about 1.1 µM and inactive = higher.
reported-property: GI50

Noted for Cc1cccc(NC(=O)C(=O)C2C(=O)NC(=O)NC2=O)c1C : its GI50 reads > 100 µM (inactive)

Noted for CCCC(=O)OC1C(C2COC(C)(C)O2)OC2OC(C)(C)OC21 (stereo not given) : its GI50 reads > 100 µM (inactive)

Noted for CC(=O)OC12C=CC(=O)N1c1ccccc1C(=O)O2 (stereo not given) : its GI50 reads > 100 µM (inactive)

Noted for C=CC1(C)CCC(C(C)C(=O)C(C=C(C)C)OC(C)=O)C12C(=O)Oc1ccccc1C2=O (stereo not given) : its GI50 reads 26.2 µM (inactive)

Noted for CC(=O)Nc1ccc(C2C(C(=O)Nc3ccccc3C)=C(C)NC(C)=C2C(=O)Nc2ccccc2C)cc1 : its GI50 reads > 100 µM (inactive)

Noted for COc1ccc(NC(=O)CC(=O)N/N=C/c2ccc(N(CCC#N)S(C)(=O)=O)cc2)cc1 : its GI50 reads > 100 µM (inactive)

Noted for CCN1CCC(O)(/C=C/c2ccccc2)C(C(=O)/C=C/c2ccccc2)C1 (stereo not given) : its GI50 reads 1.99 µM (inactive)

Noted for NC(=O)c1ccccc1NC(=O)C(=O)Nc1n[nH]c(N)n1 : its GI50 reads > 100 µM (inactive)

Noted for Cc1ccc(S(=O)(=O)NC2(C=O)CCCC3CCCCC32)cc1 (stereo not given) : its GI50 reads > 100 µM (inactive)

Noted for CC1=C(C(=O)Nc2ccccc2C)C(c2ccc(Cl)c(Cl)c2)C(C(=O)Nc2ccccc2C)=C(C)N1 : its GI50 reads 19.7 µM (inactive)

---

# Tested on: K562
# procedure-details: NCI tumour cell line growth inhibition, 48 h
Activity calls are given as the source filed them. No stated cut-off is given here; in the data, active = GI50 up to about 1.1 µM and inactive = higher.
# output must be one of label 1 = active, label 0 = inactive

For CC/C=C(\C(=C/CC)[N+](=O)[O-])[N+](=O)[O-] , what call appears in the results of this test?
label 0

For O=C(O)c1cc(/N=N/c2ccc([N+](=O)[O-])cc2)ccc1O , what call appears in the results of this test?
label 0

For COc1cc(OC)c(-c2cc(=O)c3c(OC)c(OC)c(OC)c(OC)c3o2)cc1OC , what call appears in the results of this test?
label 0

For CN(C)Cc1cc(C(=O)/C=C/c2ccc(F)cc2)cc(CN(C)C)c1O , what call appears in the results of this test?
label 0

For CC(C)(O)/C=C/C(=O)[C@](C)(O)[C@H]1[C@H](O)C[C@@]2(C)[C@@H]3CC=C4[C@@H](C[C@H](O)C(=O)C4(C)C)[C@]3(C)C(=O)C[C@]12C [CUCURBITACIN D] , what call appears in the results of this test?
label 1

For C#C[C@H](CCCC)OC(=O)N[C@H](C)c1ccccc1 , what call appears in the results of this test?
label 0

For CC(C)C1CCC/C=C/C=C/C=C/C=C/C(OC2OC(C)C(O)C(N)C2O)CC2OC(O)(CC(O)CC(O)C(O)CCC(=O)O1)CC(O)C2C(=O)O (stereo not drawn) , what call appears in the results of this test?
label 0

For Nc1nc(Cl)cc(NCC2(CO)CCC(OCc3ccccc3)C2)n1 (stereo not drawn) , what call appears in the results of this test?
label 0

For Cc1ccc(N2CN3OC(=O)N(c4ccccc4)[C@@]3(c3ccccc3)C2)cc1 , what call appears in the results of this test?
label 0

For CCOc1cc(NC(C)=O)ccc1C(=O)NN1C(=O)C(Cl)C1c1ccc(O)c(OC)c1 (stereo not drawn) , what call appears in the results of this test?
label 0

For CC#CCCCC1(C)CCNC1=S (stereo not drawn) , what call appears in the results of this test?
label 0

For CCOC(=O)/C=C1\Oc2ccccc2C1(C)O (stereo not drawn) , what call appears in the results of this test?
label 0

For C=C1c2nc3ccccc3n2C=C(c2ccc(Cl)cc2)N1c1ccc(OC)cc1 , what call appears in the results of this test?
label 0

For CCC(C)C1NC(=O)C(NC(=O)C(CC(C)C)N(C)C(=O)[C@@H]2CC(O)CN2C(=O)[C@H](C)O)C(C)OC(=O)[C@H](Cc2ccc(OC)cc2)N(C)C(=O)[C@@H]2CCCN2C(=O)[C@H](CC(C)C)NC(=O)C(C)C(=O)[C@H](C(C)C)OC(=O)CC1O (stereo partly drawn) , what call appears in the results of this test?
label 1

For CN(C)/C=N/CC(O)c1ccccc1 (stereo not drawn) , what call appears in the results of this test?
label 0

For CCCc1[nH]c(SCCCCCCCCSc2nc(-c3ccc(F)cc3)c(CCC)[nH]2)nc1-c1ccc(F)cc1 , what call appears in the results of this test?
label 0

For C=CC1(C)CCC(C(C)C(=O)C(C=C(C)C)OC(C)=O)C12C(=O)Oc1ccccc1C2=O (stereo not drawn) , what call appears in the results of this test?
label 0

For CC(=O)C(=CNc1c(C)n(C)n(-c2ccccc2)c1=O)C(C)=O , what call appears in the results of this test?
label 0

For COC(=O)CCc1cc(O)c2c(c1)C(C(=O)OC)C(c1ccc(O)c(O)c1)O2 (stereo not drawn) , what call appears in the results of this test?
label 0

For CCN(CC)CCCNc1[nH]c2ccccc2c2nc3ccc(OC)cc3c1-2 , what call appears in the results of this test?
label 0

For Cc1c(S(=O)(=O)/N=C(\NN)Nc2ccc(Cl)cc2)sc2ccc(Cl)cc12 , what call appears in the results of this test?
label 0

For C=C(Cl)C(Br)(CCl)CCC(Br)C(C)(C)Cl (stereo not drawn) , what call appears in the results of this test?
label 0

For Cc1cccc(NC(=S)N/N=C2\C(=O)Nc3ccccc32)c1 , what call appears in the results of this test?
label 0

For CC(C)=C[C@@H]1C[C@H](C)[C@H]2CC[C@H](C)[C@H]3C(=O)C(O)=C(C)C(=O)[C@]123 , what call appears in the results of this test?
label 0

For CCOC(=O)C1C2CCC1CC(=NNc1ccc([N+](=O)[O-])cc1[N+](=O)[O-])C2 (stereo not drawn) , what call appears in the results of this test?
label 0

For CCOC(=O)C(Cl)(NC(=O)c1c(F)c(F)c(F)c(F)c1F)C(F)(F)F (stereo not drawn) , what call appears in the results of this test?
label 0

For COC(=O)[C@]12CC[C@H]3CN(C(=O)OCc4ccccc4)[C@H]([C@H]31)[C@H](c1ccccc1)N2 , what call appears in the results of this test?
label 0

For CC(C)=CCc1c(O)c(CC=C(C)C)c2oc(-c3ccc(O)cc3O)c(CC=C(C)C)c(=O)c2c1O , what call appears in the results of this test?
label 0

For Cn1nc(-c2ccccc2)nc1[N+](=O)[O-] , what call appears in the results of this test?
label 0

For CCOC(=O)C1=COC(C)(C)CC1=O , what call appears in the results of this test?
label 0

For Cc1ccc(S(=O)(=O)N(c2ccccc2F)C2CCCCC2O)cc1 (stereo not drawn) , what call appears in the results of this test?
label 0

For CC(C)[Si]1(C(C)C)OCC2OC(n3c(C(=O)c4ccccc4)cc(=O)[nH]c3=O)CC2O[Si](C(C)C)(C(C)C)O1 (stereo not drawn) , what call appears in the results of this test?
label 0

For CC(=O)Nc1ccc(C2C(C(=O)Nc3ccccc3C)=C(C)NC(C)=C2C(=O)Nc2ccccc2C)cc1 , what call appears in the results of this test?
label 0

For Cc1nc2ccccc2cc1C[N+]12CN3CN(CN(C3)C1)C2 , what call appears in the results of this test?
label 0

For CC(=O)n1nnc2ccc([N+](=O)[O-])cc21 , what call appears in the results of this test?
label 0

For CC(ON1[C@](C)(c2ccccc2)CC[C@@]1(C)c1ccccc1)c1ccccc1 (stereo partly drawn) , what call appears in the results of this test?
label 0

For NCCCCNCCCNC(=O)c1nc(-c2nc(CCN)sc2Cl)sc1Cl , what call appears in the results of this test?
label 0

For BC(=O)NC(CC(C)C)C(=O)NC1c2ccsc2C(=O)C1O.CN(C)C (stereo not drawn) , what call appears in the results of this test?
label 0

---

Task for the reader: assign each of the following compounds its reported GI50.
# Tested on: ACHN
# procedure-details: NCI tumour cell line growth inhibition, 48 h
Active and inactive are the calls of the source. Cut-off read from the data, not from the text of the source: active = GI50 up to about 1.1 µM and inactive = higher.

Per the reported ACHN data, CCOC(=O)/C(=C/c1ccc(N(C)C)cc1)N(CC)CC has GI50 of 76.2 µM (inactive)

Per the reported ACHN data, CCCC(=O)Oc1c2ccsc2c(OC(=O)CCC)c2ccsc12 has GI50 of 2.23 µM (inactive)

Per the reported ACHN data, Cc1ccc2c(c1C)C(=O)/C(=C/c1ccccc1C(=O)O)C2 has GI50 of > 100 µM (inactive)

Per the reported ACHN data, COc1ccc2c(c1)c(=O)c1ccccc1n2/C=C/C(=O)O has GI50 of > 100 µM (inactive)

Per the reported ACHN data, C[C@]1(CO)[C@H]2CC[C@@]34C=C[C@@](CO)(CC[C@H]3[C@]2(C)CC[C@H]1O)C4 has GI50 of 31.9 µM (inactive)

Per the reported ACHN data, O=C(CN1CCN(c2ccccc2)CC1)c1ccc2[nH]c(=O)oc2c1 has GI50 of > 100 µM (inactive)

Per the reported ACHN data, COc1cc(OC)c(-c2cc(=O)c3c(OC)c(OC)c(OC)c(OC)c3o2)cc1OC has GI50 of > 100 µM (inactive)

Per the reported ACHN data, CCN1CCC(O)(/C=C/c2ccccc2)C(C(=O)/C=C/c2ccccc2)C1 (centres undefined) has GI50 of 1.72 µM (inactive)

Per the reported ACHN data, CC/C=C/C[C@H](O[Si](C)(C)C(C)(C)C)[C@H]1C[C@H]2O[C@H]([C@@H](O)C#C[Si](C)(C)C)C[C@H]2O1 has GI50 of 15.2 µM (inactive)
